Some substances, each annotated with its measured LDH (OD).
# System: lactate dehydrogenase (LDH)
# assay remarks: ELISA analysis of phage on LDH (irrelevant, non-specific target)
# Format: binding
# condition description: peptide binding to LDH polypeptide (non-specific binding); phage ELISA units read at 405 nm
measured endpoint: LDH (OD)

* GEVDCVYALTHRFLSPQVQYHIHRPV (GEVDCVYALTHRFLSPQVQYHHRPV; DGI-2-20C-3-A12; listed as Escherichia coli) | 0.9
* WGCVFRQWASGSGAGCARRH (DGI-2-20R-3-D9; listed as Escherichia coli) | 1.0
* VGHLLSRCAHHSPGMGASPYG (DGI-2-20F-PP-B11; listed as Escherichia coli) | 1.0
* LHFGSVMGWRPPGSLWSRPFGQVHPRSWSGS (DGI-2-40F-3-D11; listed as Escherichia coli) | 1.3
* VHSQGRMWAIPGLRGGTGAS (DGI-2-20R-3-D7; listed as Escherichia coli) | 1.0
* FGSTAYADMLSQFRKFAMNIS (DGI-2-20F-PP-E1; listed as Escherichia coli) | 1.0
* SAFGCPLPRALGGGGARFYA (DGI-2-20F-PP-E11; listed as Escherichia coli) | 0.9
* MAVLPAARDFGGVVQGGVSG (DGI-2-20F-3-C2; listed as Escherichia coli) | 1.0
* HPWVTNMLVFQRPPPPGFWLSDTTPRQRNGLGQVERPSVD (DGI-2-40F-3-C7; listed as Escherichia coli) | 0.8
* EGQRVVFLFGALVAGLCWRDR (DGI-2-20F-PP-F3; listed as Escherichia coli) | 1.1
* GLLFTSSPYQCFWVHCTLTMSPLSVLGDLSSTIGRMRASR (DGI-2-40F-3-C52; listed as Escherichia coli) | 0.8
* DVGAVVRSGHCASRPGE*QVR (DVGAVVRSGHCASRPGEQVR; DGI-2-20F-PP-H9; listed as Escherichia coli) | 1.1
* QMSRVAFSPGESWRRWVEGV (DGI-2-20R-3-A2; listed as Escherichia coli) | 1.0
* DAGIGWVGSMWFPPGCIGAC (DGI-2-20R-4-E82; listed as Escherichia coli) | 1.1
* RGSLLLTLPRLSGAVGTAYG (DGI-2-20F-PP-B3; listed as Escherichia coli) | 1.1
* RISVGQCGTSRCGGGRRGGG (DGI-2-20F-PP-D1; listed as Escherichia coli) | 1.1

====

# target entity: DGI-2 (Homo sapiens)
# Construct: encompassed the entire DGI-2 open reading frame (ORF); His-tag of vector pIVEX2.3-MCS (inferred from the vector and from the reverse primer lacking a stop codon); made in house; host or cells: cell-free in vitro translation (Rapid Translation System RTS, Roche; E. coli lysate)
# Sequence (Q15004 1-111): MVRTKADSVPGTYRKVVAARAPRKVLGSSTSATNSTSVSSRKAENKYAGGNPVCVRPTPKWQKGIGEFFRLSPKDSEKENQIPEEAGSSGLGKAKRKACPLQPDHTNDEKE
# assay remarks: ELISA analysis of phage on DGI-2 polypeptide (specific binding)
# condition description: ratio of specific binding to non-specific binding
measured endpoint: DGI-2/LDH (OD)

• VLQRSLWKDWVDGVMHGGGSRGV (DGI-2-20R-3-A7; listed as Escherichia coli) = 5.1
• SYRNFAMQSSLQVRRGSVVEDGTCWWEGVRCYSG (DGI-2-40F-4-F6; listed as Escherichia coli) = 3.2
• YGTAGLFLRRACTMSDPGDPLGRRGYTGWGVLWDEWVTGS (DGI-2-40F-3-C8; listed as Escherichia coli) = 6.0
• TLVTEGNIKGSVKAHKDIGVWQLWWDWLSVTDSETVGRVSH (TLVTEGNKGSVKAHKDIGVWQLWWDWLSVTDSETVGRVSH; DGI-2-40F-3-D10; listed as Escherichia coli) [DGL-2-40F-3-D10] = 1.7
• DQRVVGSGWFERLRNWYDRA (DGI-2-20R-4-G99; listed as Escherichia coli) = 7.2
• ALRSLGSGGFGWQAGRASPQGMTHFPYFGWSGMPTARVRP (DGI-2-40F-3-D7; listed as Escherichia coli) = 2.6
• LFRFSGTGMASLPCVGWHLV (DGI-2-20F-PP-B6; listed as Escherichia coli) = 2.6
